- Assay: Biomimetic HPLC lipophilicity determination, IAM column
- Type: physicochemical
- Condition Set: ACN-phosphate buffer pH 7.4, retention factor extrapolated to pure water
Give logkw for every item shown.
Could you keep your reply to the number by itself?

Reported logkw for CC(C)(O)[C@@H]1CC[C@](C)([C@H]2[C@@H](O)C[C@@]3(C)[C@@H]4C[C@H](O)[C@H]5C(C)(C)[C@@H](O[C@@H]6OC[C@@H](O)[C@H](O)[C@H]6O[C@@H]6O[C@H](CO)[C@@H](O)[C@H](O)[C@H]6O)CC[C@@]56C[C@@]46CC[C@]23C)O1 [A III, Astragaloside III] was 1.807

So, CC(=O)OC1C(O)COC(OC2CCC34CC35CCC3(C)C(C6(C)CCC(C(C)(C)O)O6)C(O)CC3(C)C5CC(OC3OC(CO)C(O)C(O)C3O)C4C2(C)C)C1OC(C)=O (stereo not shown) [A I, Astragaloside I] ? Its logkw was 2.713

The molecule listed as CC(=O)O[C@H]1[C@H](O[C@H]2CC[C@]34C[C@]35CC[C@]3(C)[C@@H]([C@@]6(C)CC[C@@H](C(C)(C)O)O6)[C@@H](O)C[C@@]3(C)[C@@H]5C[C@H](O[C@@H]3O[C@H](CO)[C@@H](O)[C@H](O)[C@H]3O)[C@H]4C2(C)C)OC[C@@H](O)[C@@H]1O [A II, Astragaloside II] has a reported logkw of 2.104

Reported logkw of CC(C)(O)[C@@H]1CC[C@](C)([C@H]2[C@@H](O)C[C@@]3(C)[C@@H]4C[C@H](O[C@@H]5O[C@H](CO)[C@@H](O)[C@H](O)[C@H]5O)[C@H]5C(C)(C)[C@@H](O[C@@H]6OC[C@@H](O)[C@H](O)[C@H]6O)CC[C@@]56C[C@@]46CC[C@]23C)O1 [A IV, Astragaloside IV] : 1.727
